Entry source: patent US11464770B2

# Tested on: breast cancer cell lines (e.g. MDA-MB-231, SK-BR-3, MDA-MB-468, HCC1954)
# MEASUREMENT_NOTES: Cell based assay, cell viability (CellTiter-Glo), breast cancer cell lines
# STATED_CONDITIONS: Homo sapiens; MDA-MB-231 cells; 72 hours treatment; CellTiter-Glo cell viability; read-out: IC50, Breast cancer cell line MDA-MB-231
TEST_READOUT: IC50 (nM)

(a) CC(=O)c1c([S+]([O-])Cc2ccc(C(F)(F)F)nc2C)[nH]c2c(Br)ccc(Cl)c2c1=O (stereo not shown)
(b) CC(=O)c1c([S+]([O-])Cc2ccc(-n3cccn3)nc2)[nH]c2c(Br)ccc(Cl)c2c1=O (stereo not shown)
# compare IC50 for a vs b ; return the one with the smaller value Write the label of whichever entry you select.
b

---

# Test system: melanoma cell lines
# MEASUREMENT_NOTES: Cell based assay, cell viability (CellTiter-Glo), melanoma cell lines
# STATED_CONDITIONS: Homo sapiens; LOX-IMVI cell line
TEST_READOUT: IC50 (nM)

// known answers, use as guide
COMPOUND: COC(=O)c1ccc(C[S+]([O-])c2[nH]c3c(Cl)ccc(Cl)c3c(=O)c2C(C)=O)o1 (stereo not shown)
MEASUREMENT: 1650

COMPOUND: Cc1cc(C[S+]([O-])c2[nH]c3c(Br)ccc(Cl)c3c(=O)c2C(=O)C(C)C)no1 (stereo not shown)
MEASUREMENT: 540

(1) CC(=O)c1c([S+]([O-])Cc2ccc(I)cc2)[nH]c2c(Cl)ccc(Cl)c2c1=O (stereo not shown)
(2) CC(=O)c1c([S+](C)[O-])n(C(=O)c2ccc(Br)cc2)c2c(Br)ccc(Cl)c2c1=O (stereo not shown)
Hi, I'm comparing two records. Which one has the lower IC50, 1 or 2 ? State the label of the item chosen.
2
(2: 1050 nM, 1: 1570 nM)

---

# System: neuroblastoma cell lines
# MEASUREMENT_NOTES: Cell based assay, cell viability (CellTiter-Glo), neuroblastoma cell lines
# STATED_CONDITIONS: Homo sapiens; SH-SY5Y cell line
TEST_READOUT: IC50

Here's what some known entries look like.
COMPOUND: COc1cc(C[S+]([O-])c2[nH]c3c(Br)ccc(Cl)c3c(=O)c2C(C)=O)cc(OC)c1 (stereo not shown) [Compound 59]
IC50: > 2 µM

COMPOUND: CC(=O)c1c([S+]([O-])Cc2cccnc2)[nH]c2c(Br)ccc(Cl)c2c1=O (stereo not shown) [Compound 84]
IC50: 0.6 µM

COMPOUND: CC(=O)c1c(S/C=C\C(=O)O)[nH]c2c(Br)ccc(Cl)c2c1=O [Compound 67]
IC50: > 2 µM

COMPOUND: CC(=O)c1c([S+]([O-])CN2C(=O)c3ccccc3C2=O)[nH]c2c(Cl)ccc(Cl)c2c1=O (stereo not shown) [Compound 90]
IC50: > 2 µM

# IC50 of CC(=O)c1c([S+]([O-])Cc2ccc(OC(F)(F)F)cc2)[nH]c2c(Br)ccc(Cl)c2c1=O (stereo not shown) [Compound 71] = > 2 µM

Reported IC50 of COc1ccccc1[S+]([O-])c1[nH]c2c(Br)ccc(Cl)c2c(=O)c1C(C)=O (stereo not shown) [Compound 15] : > 2 µM

The reported value for CC(=O)c1c([S+]([O-])Cc2ccc(I)cc2)[nH]c2c(Cl)ccc(Cl)c2c1=O (stereo not shown) [Compound 83] in terms of IC50 is 1.24 µM

Memo: Cc1cc(C[S+]([O-])c2[nH]c3c(Cl)ccc(Cl)c3c(=O)c2C(=O)C(C)C)no1 (stereo not shown) [Compound 86] , reported IC50: 0.5 µM

Data point: COc1cccc2[nH]c([S+]([O-])Cc3cc(C)on3)c(C(C)=O)c(=O)c12 (stereo not shown) [Compound 94] ; IC50 = 1.76 µM
